tested on: A. baumannii (HUMC1 strain); assay: MIC by broth microdilution, A. baumannii (RPMI + 10% FCS); type: cell-based; settings: Acinetobacter baumannii; HUMC1 strain; RPMI medium + 10% FCS; 35° C., 20 hours; read-out: MIC A. baumannii
Exercise: state measured MIC for each of the compounds provided.
Just the number please, in µg/mL, no unit attached.

**Q:** Entry under review: CO[C@H]1/C=C/O[C@@]2(C)Oc3c(C)c(O)c4c(c3C2=O)C2=NC3(CCN(CC(C)C)CC3)NC2=C(NC(=O)/C(C)=C\C=C\[C@H](C)[C@H](O)[C@@H](C)[C@@H](O)[C@@H](C)[C@H](OC(=O)N2CCCN(CC3CCCCC3)CC2)[C@@H]1C)C4=O . Reported MIC?
**A:** 0.06

**Q:** Entry under review: CO[C@H]1/C=C/O[C@@]2(C)Oc3c(C)c(O)c4c(c3C2=O)C2=NC3(CCN(CC(C)C)CC3)NC2=C(NC(=O)/C(C)=C\C=C\[C@H](C)[C@H](O)[C@@H](C)[C@@H](O)[C@@H](C)[C@H](OC(=O)N2CCC3(CCN(CC5CCCCC5)CC3)CC2)[C@@H]1C)C4=O . Reported MIC?
**A:** 0.06

**Q:** Entry under review: CCCN1CCC(NC(=O)O[C@H]2[C@H](C)[C@H](O)[C@H](C)[C@@H](O)[C@@H](C)/C=C/C=C(/C)C(=O)NC3=C4NC5(CCN(CC(C)C)CC5)N=C4c4c(c(O)c(C)c5c4C(=O)[C@@](C)(O/C=C/[C@H](OC)[C@H]2C)O5)C3=O)CC1 . Reported MIC?
**A:** 0.001

All values here come from patent US20260234161A1.
